Cited source: paper PMC8963331

test-protocol: Rat fertility and early embryonic development
Assay type: in vivo
details: both, Sprague-Dawley (Crl:CD), rat, in vivo, oral
property: NOAEL (mg/kg/day)
Please state the figure in mg/kg/day; there is no need to write the unit.

### Prompt Please supply the value of reported NOAEL for the item Cc1cc(Nc2cc3ncccc3c(N[C@@H]3C[C@H]4CC[C@@H](C3)N4CCC#N)n2)n[nH]1
### Response 1000

###

test-protocol: Rat embryo–fetal development
Format: in vivo
details: female, rat, in vivo, oral
property: NOAEL (mg/kg/day)
Report the value in mg/kg/day with no unit label.

### Prompt Give a short answer stating reported NOAEL for Cc1cc(Nc2cc3ncccc3c(N[C@@H]3C[C@H]4CC[C@@H](C3)N4CCC#N)n2)n[nH]1 .
### Response 1000
